// data source = patent US11382328B2

Tested on: E. coli strain W3110
ASSAY METHOD TEXT: Synergy assays: Biolog chemical sensitivity panels with Group IB metal, coefficient of drug interaction (CDI) from relative growth
Format: cell-based
MEASUREMENT CONDITIONS: Copper (mM) section, 1st of 3 copper concentrations (value not shown); 3rd of four biocide concentrations
ENDPOINT NAME: CDI (coefficient of drug interaction), copper mixed with biocide

Consider the following illustrative entries.
{"MOLECULE": "O=[N+]([O-])c1ncc[nH]1", "RESULT VALUE": "Tox"}
{"MOLECULE": "Nc1n[nH]c(N)n1", "RESULT VALUE": "Tox"}
{"MOLECULE": "C[n+]1ccc(-c2cc[n+](C)cc2)cc1", "RESULT VALUE": "Tox"}
{"MOLECULE": "CCn1cc(C(=O)O)c(=O)c2ccc(C)nc21", "RESULT VALUE": "Tox"}
{"MOLECULE": "O=C1C=C2C(=CCOC2O)O1 (stereo not shown)", "RESULT VALUE": "Tox"}

Query: Look up CDI (coefficient of drug interaction), copper mixed with biocide: CCCCC(CC)CNC(=N)NC(=N)NCCCCCCNC(=N)NC(=N)NCC(CC)CCCC (stereo not shown)
Result: Tox

Query: Can you handle CCn1cc(C(=O)O)c(=O)c2cnc(N3CCNCC3)nc21 next?
Result: Tox
